- TEST: self-splicing fitness, log relative to wild type (ln ratio); higher = more splicing; Tetrahymena group I intron in knt gene, E. coli kanamycin selection, DiMSum; sequences stand for … in CUCUCU…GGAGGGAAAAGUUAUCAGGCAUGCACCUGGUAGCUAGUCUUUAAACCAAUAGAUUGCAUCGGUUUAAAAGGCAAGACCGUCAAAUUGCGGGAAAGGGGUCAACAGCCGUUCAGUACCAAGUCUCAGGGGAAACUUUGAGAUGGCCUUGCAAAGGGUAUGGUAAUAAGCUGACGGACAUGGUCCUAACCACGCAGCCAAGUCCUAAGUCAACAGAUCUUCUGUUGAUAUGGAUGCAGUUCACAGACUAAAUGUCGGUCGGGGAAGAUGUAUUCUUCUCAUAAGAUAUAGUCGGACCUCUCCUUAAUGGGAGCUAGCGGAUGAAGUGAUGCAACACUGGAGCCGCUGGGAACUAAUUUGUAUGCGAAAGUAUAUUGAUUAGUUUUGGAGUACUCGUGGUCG;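 note: selection with 25 µg/mL kanamycin versus none on LB agar overnight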
- REPORTED CONDITIONS: 37 °C
EXPERIMENTAL READOUT: self-splicing fitness (ln)
One number for each entry.

Below, 3 sequences whose answers are already recorded.
{"columns": ["ITEM SEQUENCE", "EXPERIMENTAL READOUT", "ENDPOINT RESULT"],
 "data": [
  ["CUAUAGCAAUAUUACGUGCG", "self-splicing fitness (ln)", -0.322],
  ["UUACAGCAAUAUUACGCAUU", "self-splicing fitness (ln)", -1.52],
  ["GCGCAGCAAUAUUACGGGCG", "self-splicing fitness (ln)", -3.03]
]}

Record self-splicing fitness (ln) for all entries; do not skip any.
1. CACCAGCAAUAUUACGAUCA
2. GACGAGCAAUAUUACGAACC
3. UCACAGCAAUAUUACGAAAC

Response line:
[-1.43, -0.495, -2.7]

Could I get self-splicing fitness (ln) for every one of these entries?
1. AUAAAGCAAUAUUACGCCCU
2. GAAAAGCAAUAUUACGUUGG
3. GAAGAGCAAUAUUACGUACU
4. CCUCAGCAAUAUUACGUGAG
5. CGCAAGCAAUAUUACGUGGC
6. GCCAAGCAAUAUUACGAGUC

Response line:
1. 0.95
2. -2.16
3. -0.163
4. -0.881
5. -1.93
6. -1.1

Please report self-splicing fitness (ln) for every entry that follows.
1. GAAAAGCAAUAUUACGACAG
2. CCUAAGCAAUAUUACGCGGA
3. AAGGAGCAAUAUUACGGAGG

Response line:
-2.27
-3.62
-1.59

Below is a list of sequences. For each, state its recorded self-splicing fitness (ln).
1. GAACAGCAAUAUUACGGCUG
2. CAGCAGCAAUAUUACGCACA
3. AACCAGCAAUAUUACGAAUA

Response line:
-2.06
-0.607
-1.71

* * *

- TEST: self-splicing fitness, log relative to wild type (ln ratio); higher = more splicing; Tetrahymena group I intron in knt gene, E. coli kanamycin selection, DiMSum; sequences stand for … in CUCUCU…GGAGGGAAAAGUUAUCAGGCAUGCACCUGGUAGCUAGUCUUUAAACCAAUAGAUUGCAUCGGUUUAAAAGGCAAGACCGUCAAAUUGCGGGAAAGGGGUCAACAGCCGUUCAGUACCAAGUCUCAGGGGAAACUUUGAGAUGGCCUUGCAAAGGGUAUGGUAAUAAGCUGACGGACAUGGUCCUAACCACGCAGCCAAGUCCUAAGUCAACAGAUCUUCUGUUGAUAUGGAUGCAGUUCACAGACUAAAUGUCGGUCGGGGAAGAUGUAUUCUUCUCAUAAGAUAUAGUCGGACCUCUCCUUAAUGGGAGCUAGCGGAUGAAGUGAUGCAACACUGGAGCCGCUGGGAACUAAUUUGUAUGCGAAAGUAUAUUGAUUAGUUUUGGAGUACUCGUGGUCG
- REPORTED CONDITIONS: 37 °C
Exercise: state measured self-splicing fitness (ln) for each of the sequences provided.
Answers are plain numbers.

{"columns": ["ITEM SEQUENCE", "self-splicing fitness (ln)"],
 "data": [
  ["GUAGAGCAAUAUUACGGUUA", -0.0418],
  ["UCAGAGCAAUAUUACGGCAU", -1.87],
  ["CAAUAGCAAUAUUACGUUGG", -1.3],
  ["UACCAGCAAUAUUACGUUGU", -2.66],
  ["UACAAGCAAUAUUACGACGG", -0.442],
  ["CUUGAGCAAUAUUACGCUGG", -2.17]
]}

Query sequence follows.
Prompt line: Entry AAACAGCAAUAUUACGUUCU : reported self-splicing fitness (ln) = ?
Response line: -0.0204

* * *

For each of the sequences below, state its self-splicing fitness (ln).
- TEST: self-splicing fitness, log relative to wild type (ln ratio); higher = more splicing; Tetrahymena group I intron in knt gene, E. coli kanamycin selection, DiMSum; sequences stand for … in CUCUCU…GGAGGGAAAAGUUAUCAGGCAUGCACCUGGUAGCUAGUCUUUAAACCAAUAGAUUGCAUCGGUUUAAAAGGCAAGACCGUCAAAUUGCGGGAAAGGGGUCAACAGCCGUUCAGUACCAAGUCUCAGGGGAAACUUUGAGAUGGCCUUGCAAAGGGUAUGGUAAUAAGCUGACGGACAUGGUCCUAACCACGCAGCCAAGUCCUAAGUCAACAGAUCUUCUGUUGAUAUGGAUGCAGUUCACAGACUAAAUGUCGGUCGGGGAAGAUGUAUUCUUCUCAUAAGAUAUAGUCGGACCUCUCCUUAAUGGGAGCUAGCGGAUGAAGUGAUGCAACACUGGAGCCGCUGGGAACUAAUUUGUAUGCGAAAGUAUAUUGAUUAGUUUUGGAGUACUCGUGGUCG
- REPORTED CONDITIONS: 30 °C
One number for each entry.

{"columns": ["ITEM SEQUENCE", "EXPERIMENTAL READOUT", "ENDPOINT RESULT"],
 "data": [
  ["AUAUAGCAAUAUUACGAGAC", "self-splicing fitness (ln)", -3.02],
  ["CUUGAGCAAUAUUACGUCUC", "self-splicing fitness (ln)", -3.07],
  ["CUGUAGCAAUAUUACGAAUC", "self-splicing fitness (ln)", -3.03],
  ["AUGAAGCAAUAUUACGGUUU", "self-splicing fitness (ln)", -1.99],
  ["AACUAGCAAUAUUACGUACG", "self-splicing fitness (ln)", -1.15],
  ["AUCCAGCAAUAUUACGUUUG", "self-splicing fitness (ln)", -2.58],
  ["CUUAAGCAAUAUUACGCUAG", "self-splicing fitness (ln)", -3.35],
  ["CCCAAGCAAUAUUACGGAGG", "self-splicing fitness (ln)", -1.95],
  ["GUAUAGCAAUAUUACGUCAU", "self-splicing fitness (ln)", -2.03],
  ["UAGUAGCAAUAUUACGUCCA", "self-splicing fitness (ln)", -0.915]
]}

Dear colleague, could you send me self-splicing fitness (ln) for each of the items below? Thanks.
1. UUGAAGCAAUAUUACGAAUU
2. CUACAGCAAUAUUACGUAAA
3. UCUCAGCAAUAUUACGCGGU
4. UUCUAGCAAUAUUACGGCAA
5. ACCGAGCAAUAUUACGAACU
6. GGCGAGCAAUAUUACGACAU
7. ACAUAGCAAUAUUACGCUCA
8. UGAUAGCAAUAUUACGCCCU

Response line:
1. -2.73
2. -3.13
3. -2.89
4. 0.293
5. -2.13
6. -0.665
7. -0.539
8. -0.0785

Record self-splicing fitness (ln) for all entries; do not skip any.
1. AGUUAGCAAUAUUACGAAUC
2. UUAUAGCAAUAUUACGCAAA
3. CAAAAGCAAUAUUACGUAGG

Response line:
-2.57
-2.85
-0.97

# batch: return self-splicing fitness (ln) for each of the 6 sequences below
1. CGUCAGCAAUAUUACGGUGC
2. GUAAAGCAAUAUUACGUUUG
3. GGACAGCAAUAUUACGCCCA
4. AGGUAGCAAUAUUACGGCAA
5. AGGUAGCAAUAUUACGAUUC
6. UCUCAGCAAUAUUACGUCUA

Response line:
1: -2.31; 2: -2.28; 3: -0.886; 4: -0.557; 5: -1.1; 6: -2.95

Batch request: self-splicing fitness (ln) for each of the following sequences.
1. AGACAGCAAUAUUACGGAUU
2. CGAAAGCAAUAUUACGAUGG
3. CUGAAGCAAUAUUACGGCAG
4. GUCCAGCAAUAUUACGCUGU
5. AUAUAGCAAUAUUACGAUGG

Response line:
[-2.55, -0.519, -0.522, -0.609, -3.07]
